assay: Solubility test in low-polarity solvents (saturated solution, λmax, solubility, εC); assay type: physicochemical; settings: n-decane
OBSERVED PROPERTY: εC (molar extinction coefficient × concentration of saturated solution) (cm⁻¹)

I = CCCCC(CC)CN(CC(CC)CCCC)c1ccc(/N=N/c2sc(C(=O)OCC)c(C)c2C#N)c(CC)c1 (stereo not shown) [Dye 20]
II = CCCCC(CC)CNc1ccc(NCC(CC)CCCC)c2c1C(=O)c1ccccc1C2=O (stereo not shown) [Comparative dye 2, reference compound]
III = CCCCC(CC)CN(CC(CC)CCCC)c1ccc(N=Nc2snc(CC)c2C#N)c(NC(C)=O)c1 (stereo not shown) [Dye 10]
[in] Sort the molecules on εC (molar extinction coefficient × concentration of saturated solution); start with the lowest figure. To answer, arrange all of the labels according to the requested order.
[out] II, I, III

---

experiment: Solubility test in low-polarity solvents (saturated solution, λmax, solubility, εC); assay type: physicochemical; conditions: Isopar M
OBSERVED PROPERTY: εC (cm⁻¹)

Use the examples below as a reference point.
CCCCC(CC)CN(CC(CC)CCCC)c1ccc(/N=N/c2snc(C)c2C#N)c(CC)c1 (centres unmarked) [Dye 8] :: 2500
CCCCC(CC)CN(CC(CC)CCCC)c1ccc(/N=N/c2snc(C)c2C#N)c(NC(=O)CC)c1 (centres unmarked) [Dye 9] :: 8900
CCCCC(CC)CN(CC(CC)CCCC)c1ccc(/N=N/c2sc(C(=O)OCC)c(C)c2C(=O)OCC)c(NC(=O)CC)c1 (centres unmarked) [Dye 7] :: 6300
CCCCC(CC)CN(CC(CC)CCCC)c1ccc(/N=N/c2snc(CC)c2C#N)c(C)c1 (centres unmarked) [Dye 4] :: 6000
CCCCC(CC)CN(CC(CC)CCCC)c1ccc(N=Nc2snc(CC)c2C#N)c(NC(C)=O)c1 (centres unmarked) [Dye 10] :: 18600

1 = CCCCC(CC)CN(CC(CC)CCCC)c1ccc(N=Nc2snc(C)c2C#N)c(NC(C)=O)c1 (centres unmarked) [Dye 2]
2 = CCCCC(CC)CNc1ccc(NCC(CC)CCCC)c2c1C(=O)c1ccccc1C2=O (centres unmarked) [Comparative dye 2, reference compound]
[in] Field: entry with larger εC (options 1 / 2 ). Give the label of your selection.
[out] 1
(1: 4000 cm⁻¹, 2: 1000 cm⁻¹)

---

experiment: Solubility test in low-polarity solvents (saturated solution, λmax, solubility, εC); assay type: physicochemical; conditions: n-decane solution
OBSERVED PROPERTY: λmax (absorption-maximum wavelength) (nm)

CCCCc1nsc(/N=N/c2ccc(N(CC(CC)CCCC)CC(CC)CCCC)cc2C)c1C#N (stereo not drawn) [Dye 13] :: 527
CCCCC(CC)CN(CC(CC)CCCC)c1ccc(/N=N/c2snc(C)c2C#N)cc1 (stereo not drawn) [Dye 17] :: 523
CCCCC(CC)CN(CC)c1ccc(/N=N/c2snc(CC)c2C#N)c(NC(C)=O)c1 (stereo not drawn) [Dye 11] :: 535
CCCCC(CC)CN(CC(CC)CCCC)c1ccc(/N=N/c2sc(C(=O)OCC)c(C)c2C#N)c(CC)c1 (stereo not drawn) [Dye 20] :: 546
CCCCC(CC)CN(CC(CC)CCCC)c1ccc(/N=N/c2snc(CC)c2C#N)c(C)c1 (stereo not drawn) [Dye 4] :: 527
CCCCC(CC)CN(CC(CC)CCCC)c1ccc(/N=N/c2snc(C)c2C#N)c(NC(=O)CC)c1 (stereo not drawn) [Dye 9] :: 543
CCCCCCCCN(CC(CC)CCCC)c1ccc(/N=N/c2snc(C)c2C#N)c(C)c1 (stereo not drawn) [Dye 5] :: 523
CCCCC(CC)CN(CC(CC)CCCC)c1ccc(/N=N/c2sc(C(=O)OCC)c(C)c2C(=O)OCC)c(C)c1 (stereo not drawn) [Dye 6] :: 504
CCCCC(CC)CN(CC(CC)CCCC)c1ccc(/N=N/c2sc(C(=O)OCC)c(C)c2C(=O)OCC)c(NC(=O)CC)c1 (stereo not drawn) [Dye 7] :: 536
CCCCC(CC)CN(CC(CC)CCCC)c1ccc(N=Nc2sc(C(=O)OCC)c(C)c2C(=O)OCC)c(NC(C)=O)c1 (stereo not drawn) [Dye 3] :: 537
CCCCC(CC)CN(CC(CC)CCCC)c1ccc(N=Nc2snc(C)c2C#N)c(NC(C)=O)c1 (stereo not drawn) [Dye 2] :: 543
CCc1nsc(N=Nc2ccc(N(CC(C)C)CC(C)C)cc2NC(C)=O)c1C#N [Dye 1] :: 538

---

test: Solubility test in low-polarity solvents (saturated solution, λmax, solubility, εC); assay type: physicochemical; conditions: decalin solution
OBSERVED PROPERTY: λmax (absorption-maximum wavelength) (nm)

CCCCC(CC)CN(CC(CC)CCCC)c1ccc(/N=N/c2snc(C)c2C#N)c(NC(=O)CC)c1 (stereo not drawn) :: 547
CCCCC(CC)CNc1ccc(NCC(CC)CCCC)c2c1C(=O)c1ccccc1C2=O (stereo not drawn) [Comparative dye 2, reference compound] :: 645
C=Cn1c(N=Nc2ccc(N(CCCC)CCCC)cc2NC(C)=O)nc(C#N)c1C#N [Comparative dye 3, reference compound] :: 520
CCCCC(CC)CN(CC(CC)CCCC)c1ccc(N=Nc2snc(C)c2C#N)c(NC(C)=O)c1 (stereo not drawn) :: 547
CCCCC(CC)CN(CC(CC)CCCC)c1ccc(/N=N/c2snc(CC)c2C#N)c(C)c1 (stereo not drawn) :: 534
CCCCC(CC)CN(CC(CC)CCCC)c1ccc(N=Nc2snc(CC)c2C#N)c(NC(C)=O)c1 (stereo not drawn) :: 546

---

assay: Solubility test in low-polarity solvents (saturated solution, λmax, solubility, εC); type: physicochemical; conditions: n-decane; saturated solution, stood at 5° C. for 24 hours, 0.1-μm filter
OBSERVED PROPERTY: Solubility (%)

Use the examples below as a reference point.
CCc1nsc(N=Nc2ccc(N(CC(C)C)CC(C)C)cc2NC(C)=O)c1C#N :: 1.1
CCCCC(CC)CN(CC)c1ccc(/N=N/c2snc(CC)c2C#N)c(NC(C)=O)c1 (centres unmarked) :: 4.2
CCCCC(CC)CN(CC(CC)CCCC)c1ccc(/N=N/c2snc(C(C)C)c2C#N)c(C)c1 (centres unmarked) :: 4.8
CCCCc1nsc(/N=N/c2ccc(N(CC(CC)CCCC)CC(CC)CCCC)cc2C)c1C#N (centres unmarked) :: 5.9

A = CCCCC(CC)CN(CC(CC)CCCC)c1ccc(/N=N/c2sc(C(=O)OCC)c(C)c2C#N)c(CC)c1 (centres unmarked)
B = CCCCC(CC)CN(CC(CC)CCCC)c1ccc(/N=N/c2snc(CC)c2C#N)c(C)c1 (centres unmarked)
C = CCOC(=O)c1sc(/N=N/c2ccc(N(CC(C)C)CC(C)C)cc2C)c(C(=O)OCC)c1C
D = CCCCC(CC)CN(CC(CC)CCCC)c1cc(C)c(/N=N/c2snc(C)c2C#N)cc1OC (centres unmarked)
[in] Ordering: ascending Solubility. To answer, arrange all of the labels according to the requested order.
[out] C, D, B, A
(C: 1.7%, D: 3.7%, B: 6.6%, A: 9.7%)

---

assay: Solubility test in low-polarity solvents (saturated solution, λmax, solubility, εC); format: physicochemical; conditions: Isopar M; saturated solution
OBSERVED PROPERTY: Solubility (%)

Use the examples below as a reference point.
CCCCC(CC)CN(CC(CC)CCCC)c1ccc(/N=N/c2snc(C)c2C#N)c(CC)c1 (stereo not shown) :: 3.4
CCCCC(CC)CN(CC(CC)CCCC)c1ccc(/N=N/c2snc(CC)c2C#N)c(C)c1 (stereo not shown) :: 8.51

1 = CCCCC(CC)CNc1ccc(NCC(CC)CCCC)c2c1C(=O)c1ccccc1C2=O (stereo not shown) [Comparative dye 2, reference compound]
2 = CCCCC(CC)CN(CC(CC)CCCC)c1ccc(/N=N/c2snc(C)c2C#N)c(NC(=O)CC)c1 (stereo not shown)
[in] Field: entry with larger Solubility (options 1 / 2 ). Give the label of your selection.
[out] 2

---

assay: Light fastness test (retention of dye after 2 hours of high-pressure mercury lamp irradiation); assay type: physicochemical; settings: Isopar M; 1 mg in 250 mL, 2 hours irradiation
OBSERVED PROPERTY: Light fastness: retention of dye (%)

CCCCC(CC)CN(CC(CC)CCCC)c1ccc(/N=N/c2snc(CC)c2C#N)c(C)c1 (stereo not shown) [Dye 4] :: 95
CCCCC(CC)CNc1ccc(NCC(CC)CCCC)c2c1C(=O)c1ccccc1C2=O (stereo not shown) [Comparative dye 2, reference compound] :: 90
CCCCC(CC)CN(CC(CC)CCCC)c1ccc(/N=N/c2sc(C(=O)OCC)c(C)c2C(=O)OCC)c(NC(=O)CC)c1 (stereo not shown) [Dye 7] :: 87
CCCCC(CC)CN(CC(CC)CCCC)c1ccc(N=Nc2snc(C)c2C#N)c(NC(C)=O)c1 (stereo not shown) [Dye 2] :: 100
